Just for reference, patent US10035800B2 is where these values come from.

target: BRD4 (BDII_E352-M457) (Homo sapiens, UniProt O60885); construct: protocol; made in house; test: TR-FRET bromodomain binding assay, second bromodomain of BRD4; settings: TR-FRET assay protocol G (compound 0.92 μM-15 pM); 30 nM probe
Ki under 8 nM gets 1.0, anything at or over 8 nM gets 0.0.

molecule	class_assignment
Cn1cc2c3c(c[nH]c3c1=O)C(CCNC(=O)OCc1ccccc1)N(c1ccc(F)cc1F)c1ccc(CS(C)(=O)=O)cc1-2 (racemic)	1.0
Cn1cc2c3c(c[nH]c3c1=O)C(CN1C(=O)c3ccccc3C1=O)N(c1ccc(F)cc1F)c1ccc(CS(C)(=O)=O)cc1-2 (stereo not shown) [Example 117]	1.0
COc1cccc(OC)c1C1c2c[nH]c3c(=O)n(C)cc(c23)-c2cc(CS(C)(=O)=O)ccc2N1c1ccc(F)cc1F (racemic)	0.0
Cn1cc2c3c(c(C#N)[nH]c3c1=O)CN(c1ccc(Cl)cc1)c1ccccc1-2	1.0
CC#CCOC(=O)N1Cc2c[nH]c3c(=O)n(C)cc(c23)-c2cc(CS(C)(=O)=O)ccc21	1.0

Input Cn1cc(-c2[nH]c3c(=O)n(C)cc4c3c2CN(c2ccccn2)c2ccc(CS(C)(=O)=O)cc2-4)cn1 ; condition: Ki strictly below 8 nM. Does it hold?
1.0

Input CN1CCC(N2Cc3c[nH]c4c(=O)n(C)cc(c34)-c3cc(CS(C)(=O)=O)ccc32)CC1 ; condition: Ki strictly below 8 nM. Does it hold?
0.0

Input Cn1cc2c3c(c[nH]c3c1=O)C(C(=O)NCC(C)(C)O)N(c1ccc(F)cc1F)c1ccc(CS(C)(=O)=O)cc1-2 (stereo not shown) ; condition: Ki strictly below 8 nM. Does it hold?
0.0

Input CCS(=O)(=O)c1ccc2c(c1)-c1cn(C)c(=O)c3[nH]cc(c13)CN2[C@H](C)c1ccccc1 ; condition: Ki strictly below 8 nM. Does it hold?
1.0

Input CN1CCN(Cc2[nH]c3c(=O)n(C)cc4c3c2CN(c2ccc(Cl)cc2)c2ccc(CS(C)(=O)=O)cc2-4)CC1 ; condition: Ki strictly below 8 nM. Does it hold?
1.0

Input Cn1cc2c3c(c[nH]c3c1=O)CN(CC(C)(C)CN1CCCC1)c1ccc(CS(C)(=O)=O)cc1-2 ; condition: Ki strictly below 8 nM. Does it hold?
1.0

Input CCNC(=O)c1[nH]c2c(=O)n(C)cc3c2c1C(C(=O)OCC)N(c1ccc(F)cc1F)c1ccc(CS(C)(=O)=O)cc1-3 (stereo not shown) ; condition: Ki strictly below 8 nM. Does it hold?
1.0

Input CCNC(=O)N1Cc2c[nH]c3c(=O)n(C)cc(c23)-c2cc(CS(C)(=O)=O)ccc21 ; condition: Ki strictly below 8 nM. Does it hold?
1.0

* * *

tested on: breast cancer cell line MX-1; assay: MX-1 cell line proliferation assay; assay type: cell-based; details: MX-1 cells, 3-day proliferation assay, Cell Titer Glo; read-out: Cellular proliferation: EC50
reported_metric: EC50 (µM)
Provide the reading as a plain figure in µM.

compound	EC50 / µM
Cn1cc2c3c(c[nH]c3c1=O)C(CCC(=O)N1CCN(C(=O)OC(C)(C)C)CC1)N(c1ccc(F)cc1F)c1ccc(CS(C)(=O)=O)cc1-2 (stereo not drawn)	0.342

Read the next record carefully.
Look up and report measured EC50 for this entry: Cn1cc2c3c(c[nH]c3c1=O)C(CCCOc1ccccc1)N(c1ccc(F)cc1F)c1ccc(CS(C)(=O)=O)cc1-2 (stereo not drawn) [Example 143]
0.175

* * *

target: BRD4 (BDI_K57-E168) (Homo sapiens, UniProt O60885); construct: BD1: amino acids K57-E168; made in house; assay: TR-FRET bromodomain binding assay, first bromodomain of BRD4; conditions: TR-FRET assay protocol G (compound 0.92 μM-15 pM); 100 nM probe
Ki under 8 nM gets Condition met, anything at or over 8 nM gets Condition not met.

molecule	class_assignment
Cc1ccccc1NC(=O)N1Cc2c[nH]c3c(=O)n(C)cc(c23)-c2cc(CS(C)(=O)=O)ccc21	Condition not met
Cn1cc2c3c(c[nH]c3c1=O)C(c1ccccn1)N(c1ccc(F)cc1F)c1ccc(CS(C)(=O)=O)cc1-2 (stereo not shown)	Condition not met
Cn1cc2c3c(c[nH]c3c1=O)CN(C1CCC(N)CC1)c1ccc(S(C)(=O)=O)cc1-2 (stereo not shown)	Condition not met
COC(=O)CCC(=O)N1Cc2c[nH]c3c(=O)n(C)cc(c23)-c2cc(CS(C)(=O)=O)ccc21	Condition met
Cn1cc2c3c(c[nH]c3c1=O)CN(c1ccc(F)cc1F)c1c-2cc(CS(C)(=O)=O)cc1C1CC1	Condition met

Input CCOC(=O)C1c2c[nH]c3c(=O)n(C)cc(c23)-c2cc(CS(C)(=O)=O)ccc2N1c1ccc(F)cc1 (stereo not shown) [Example 85] ; condition: Ki strictly below 8 nM. Does it hold?
Condition not met

Input CCC(=O)N1Cc2c[nH]c3c(=O)n(C)cc(c23)-c2cc(CS(C)(=O)=O)ccc21 ; condition: Ki strictly below 8 nM. Does it hold?
Condition met

Input Cn1cc2c3c(c[nH]c3c1=O)CN(C(=O)c1cccc3ccccc13)c1ccc(CS(C)(=O)=O)cc1-2 ; condition: Ki strictly below 8 nM. Does it hold?
Condition not met

Input Cn1cc2c3c(c(C#N)[nH]c3c1=O)CN(c1ccc(F)cc1F)c1ccc(CS(C)(=O)=O)cc1-2 ; condition: Ki strictly below 8 nM. Does it hold?
Condition met

Input Cn1cc2c3c(c[nH]c3c1=O)C(CNC(=O)c1ccccc1)N(c1ccc(F)cc1F)c1ccc(CS(C)(=O)=O)cc1-2 (stereo not shown) ; condition: Ki strictly below 8 nM. Does it hold?
Condition not met

* * *

molecular target: BRD4 (BDII_E352-M457) (Homo sapiens, UniProt O60885); construct: protocol; made in house; assay: TR-FRET bromodomain binding assay, second bromodomain of BRD4; conditions: TR-FRET assay protocol G (compound 0.92 μM-15 pM); 30 nM probe
Note: every record was labeled by where its Ki sits among low group (below 2 nM), middle group (2 nM to below 7 nM), high group (7 nM or more)

molecule	class_assignment
Cn1cc2c3c(c[nH]c3c1=O)CN(Cc1ccccc1)c1ccc(CS(C)(=O)=O)cc1-2 [Example 247]	middle group

Categorize the following entry: COC(=O)NC1CCC(N2Cc3c[nH]c4c(=O)n(C)cc(c34)-c3cc(CS(C)(=O)=O)ccc32)CC1 (stereo not drawn) [Example 225]
middle group

Categorize the following entry: Cn1cc2c3c(c[nH]c3c1=O)C(Cn1ccccc1=O)N(c1ccc(F)cc1F)c1ccc(CS(C)(=O)=O)cc1-2 (stereo not drawn) [Example 238]
middle group

Categorize the following entry: CCOC(=O)c1[nH]c2c(=O)n(C)cc3c2c1CN(c1ccc(F)cc1F)c1ccc(CS(C)(=O)=O)cc1-3 [Example 208]
low group

Categorize the following entry: Cn1ccc(CN2Cc3c[nH]c4c(=O)n(C)cc(c34)-c3cc(CS(C)(=O)=O)ccc32)n1 [Example 255]
high group

Categorize the following entry: CN1CCCC(N2Cc3c[nH]c4c(=O)n(C)cc(c34)-c3cc(CS(C)(=O)=O)ccc32)CC1 (stereo not drawn) [Example 189]
high group

Categorize the following entry: Cn1cc2c3c(c[nH]c3c1=O)C(CCCCCCO)N(c1ccc(F)cc1F)c1ccc(CS(C)(=O)=O)cc1-2 (stereo not drawn) [Example 136]
low group

Categorize the following entry: Cn1cc2c3c(c[nH]c3c1=O)CN(C(=O)Nc1ccc(F)cc1)c1ccc(CS(C)(=O)=O)cc1-2 [Example 46]
high group

Categorize the following entry: Cn1cc2c3c(c[nH]c3c1=O)C(c1cc(C(C)(C)C)cc(C(C)(C)C)c1)N(c1ccc(F)cc1F)c1ccc(CS(C)(=O)=O)cc1-2 (stereo not drawn) [Example 223]
high group

Categorize the following entry: COc1cccc(CNC(=O)N2Cc3c[nH]c4c(=O)n(C)cc(c34)-c3cc(CS(C)(=O)=O)ccc32)c1 [Example 65]
high group

Categorize the following entry: Cn1cc2c3c(c[nH]c3c1=O)CN(c1cccnc1)c1ccc(CS(C)(=O)=O)cc1-2 [Example 244]
low group

Categorize the following entry: Cn1cc2c3c(c[nH]c3c1=O)C(CCC(=O)N1CCOCC1)N(c1ccc(F)cc1F)c1ccc(CS(C)(=O)=O)cc1-2 (stereo not drawn) [Example 120]
low group

Categorize the following entry: CCOCCC(C)N1Cc2c[nH]c3c(=O)n(C)cc(c23)-c2cc(CS(C)(=O)=O)ccc21 (racemic) [Example 153]
high group

Categorize the following entry: Cn1cc2c3c(c[nH]c3c1=O)CN(c1ccc(F)cc1F)c1ncncc1-2 [Example 83]
high group

Categorize the following entry: Cn1cc2c3c(c[nH]c3c1=O)CN(CCC1CCOCC1)c1ccc(CS(C)(=O)=O)cc1-2 [Example 191]
middle group
